Biological target: Dihydrofolate reductase (Homo sapiens, UniProt P00374)
Sequence (P00374 whole entry): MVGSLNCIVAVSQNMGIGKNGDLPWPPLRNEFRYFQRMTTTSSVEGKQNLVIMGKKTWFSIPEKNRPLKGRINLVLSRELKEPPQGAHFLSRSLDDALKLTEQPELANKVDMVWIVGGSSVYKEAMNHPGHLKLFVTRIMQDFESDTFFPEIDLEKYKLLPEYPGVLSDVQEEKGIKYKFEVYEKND
Assay: Inhibitory activity against human recombinant Dihydrofolate reductase
readout-name: Ki (pM)
Give bare numbers, in pM.

# example entries with known answers
Task: For the record Nc1cc(N)c2cc(CCc3ccc(C(=O)NC(CCCNC(=O)c4ccccc4C(=O)O)C(=O)O)cc3)ccc2c1 (centres undefined) , what value of Ki is listed for Dihydrofolate reductase (Homo sapiens, UniProt P00374)?
Result: 0.21

Task: Param readout= Ki; system= Dihydrofolate reductase (Homo sapiens, UniProt P00374); entry= Nc1cc(N)c2nc(CCc3ccc(C(=O)NC(CCCNC(=O)c4ccccc4C(=O)O)C(=O)O)cc3)cnc2c1 (centres undefined) ; returns value.
Result: 0.35

Task: What is its Ki for Dihydrofolate reductase (Homo sapiens, UniProt P00374)? Entry: CCC(Cc1cnc2nc(N)nc(N)c2n1)c1ccc(C(=O)NC(CCCNC(=O)c2ccccc2C(=O)O)C(=O)O)cc1 (centres undefined)
Result: 0.62

Now for another entry.
Task: Ki of C#CCC(Cc1cnc2nc(N)nc(N)c2n1)c1ccc(C(=O)NC(CCCNC(=O)c2ccccc2C(=O)O)C(=O)O)cc1 (centres undefined) on Dihydrofolate reductase (Homo sapiens, UniProt P00374)?
Result: 0.6
